experiment: Phase 1 SAD/MAD study: plasma pharmacokinetics of Compound 1a (LC-MS-MS, noncompartmental analysis); assay type: in vivo, human; conditions: human, plasma, po, 120 mg, SAD 120 mg oral, fasted, average, plasma; read-out: AUC0-24
parameter: AUC(0-t) (ng·h/mL)

1) O.O=C([O-])c1nn[nH]c1Oc1ccc(-c2ccc(C3CC(F)(F)C3)cc2)cc1.[Na+] :: 36700

###

Assay: Phase 1 SAD/MAD study: plasma pharmacokinetics of Compound 1a (LC-MS-MS, noncompartmental analysis)
Type: in vivo, human
Conditions: human, plasma, po, 120 mg, SAD 120 mg oral, fasted, average, plasma (N = 5); read-out: t1/2 (converted)
Protocol: Pharmacokinetics: Human K2-ethylenediaminetetraacetic acid (K2-EDTA) plasma samples were analyzed for Compound 1a by a validated method over a range of 1.0 to 1000 ng/mL based on the analysis of 100 μL of sample. Human plasma containing Compound 1a and the internal standard, Compound 1a-D4, was extracted using liquid-liquid extraction and analyzed by a Sciex API 4000 LC-MS-MS equipped with an HPLC column. […]
parameter: half-life (h)

1. O.O=C([O-])c1nn[nH]c1Oc1ccc(-c2ccc(C3CC(F)(F)C3)cc2)cc1.[Na+] :: 21.9

###

assay: Phase 1 SAD/MAD study: plasma pharmacokinetics of Compound 1a (LC-MS-MS, noncompartmental analysis); type: in vivo, human; conditions: human, plasma, oral, 1000 mg, single dose of 1,000 mg, fasted; read-out: average Tmax
parameter: Tmax (h)

1. O.O=C([O-])c1nn[nH]c1Oc1ccc(-c2ccc(C3CC(F)(F)C3)cc2)cc1.[Na+] :: 3

###

assay: Phase 1 SAD/MAD study: plasma pharmacokinetics of Compound 1a (LC-MS-MS, noncompartmental analysis); assay type: in vivo, human; conditions: human, plasma, oral, 750 mg, MAD 750 mg qd for 7 days, average, plasma; read-out: Day 7 Tmax
parameter: Tmax at 7 days (h)

1. O.O=C([O-])c1nn[nH]c1Oc1ccc(-c2ccc(C3CC(F)(F)C3)cc2)cc1.[Na+] :: 2.62

###

experiment: Phase 1 SAD/MAD study: plasma pharmacokinetics of Compound 1a (LC-MS-MS, noncompartmental analysis); format: in vivo, human; conditions: human, plasma, oral, 3000 mg, single dose 3000 mg, healthy volunteers, geometric mean (geometric CV %); read-out: t1/2 (converted)
parameter: half-life (h)

1) O.O=C([O-])c1nn[nH]c1Oc1ccc(-c2ccc(C3CC(F)(F)C3)cc2)cc1.[Na+] :: 34

###

assay: Phase 1 SAD/MAD study: plasma pharmacokinetics of Compound 1a (LC-MS-MS, noncompartmental analysis); format: in vivo, human; details: human, plasma, oral, 1000 mg, single dose 1000 mg, healthy volunteers, geometric mean; read-out: AUClast
parameter: AUC(0-t)

1) O.O=C([O-])c1nn[nH]c1Oc1ccc(-c2ccc(C3CC(F)(F)C3)cc2)cc1.[Na+] :: 184 µg·h/mL

###

assay: Phase 1 SAD/MAD study: plasma pharmacokinetics of Compound 1a (LC-MS-MS, noncompartmental analysis); format: in vivo, human; settings: human, plasma, po, 1000 mg, SAD 1,000 mg oral, fasted, average, plasma; read-out: Tmax
parameter: Tmax (h)

1) O.O=C([O-])c1nn[nH]c1Oc1ccc(-c2ccc(C3CC(F)(F)C3)cc2)cc1.[Na+] :: 3
